ASSAY: absolute recovery over mixed-bed multilayer solid-phase extraction; higher = better recovery
CONDITION: surface water; enrichment method: SPE
REPORTED ENDPOINT: absolute recovery (%)

MOLECULE: Nc1nnc(-c2cccc(Cl)c2Cl)c(N)n1
REPORTED ENDPOINT: absolute recovery
NUMERIC VALUE: 96.6
--
MOLECULE: COc1nc(C)nc(NC(=O)[N-]S(=O)(=O)c2ccccc2CCC(F)(F)F)n1
REPORTED ENDPOINT: absolute recovery
NUMERIC VALUE: 113
--
MOLECULE: CC1(C)CCC(Cc2ccc(Cl)cc2)C1(O)Cn1cncn1 (centres undefined)
REPORTED ENDPOINT: absolute recovery
NUMERIC VALUE: 108
--
MOLECULE: CC(C)N(C(=O)C(=O)[O-])c1ccc(F)cc1
REPORTED ENDPOINT: absolute recovery
NUMERIC VALUE: 91.2
--
MOLECULE: CC(C)[NH2+]CC(O)COc1ccc(CC(N)=O)cc1 (centres undefined)
REPORTED ENDPOINT: absolute recovery
NUMERIC VALUE: 92.6
--
MOLECULE: COc1cccc(C2(O)CCCCC2C[NH3+])c1 (centres undefined)
REPORTED ENDPOINT: absolute recovery
NUMERIC VALUE: 47.4
--
MOLECULE: COC(=O)N(OC)c1ccccc1COc1ccn(-c2ccc(Cl)cc2)n1
REPORTED ENDPOINT: absolute recovery
NUMERIC VALUE: 98
--
MOLECULE: CCC(C)c1cc([N+](=O)[O-])cc([N+](=O)[O-])c1[O-] (centres undefined)
REPORTED ENDPOINT: absolute recovery
NUMERIC VALUE: 82.6
--
MOLECULE: CC12C=CC(=O)C=C1CCC1C2C(=O)CC2(C)C1CCC2(O)C(=O)CO (centres undefined)
REPORTED ENDPOINT: absolute recovery
NUMERIC VALUE: 78.3

====

Recorded LC retention time by entry
ASSAY: LC retention time (Atlantis T3, 5-95% MeOH gradient, 0.1% formic acid); higher = more retained / less polar

COMPOUND: CS(=O)(=O)c1ccc(C(=O)[O-])c(Cl)c1
LC retention time, min: 12.1
--
COMPOUND: O=c1[nH+]c[n-]c2c1ncn2C1CCC(CO)O1 (stereo not given)
LC retention time, min: 9.79
--
COMPOUND: CC(=O)OCC(=O)C1(O)C(C)CC2C3CCC4=CC(=O)C=CC4(C)C3(F)C(O)CC21C (stereo not given) [Betamethasone 21-acetate C]
LC retention time, min: 19.6
--
COMPOUND: CC(=O)Nc1ccc(O)cc1
LC retention time, min: 10.3
--
COMPOUND: Cc1cc(=O)n(-c2ccccc2)n1C [Phenazon (=Antipyrin)]
LC retention time, min: 13.3
--
COMPOUND: CCCC(NOCC)=C1C(=O)CC(C2CCCSC2)CC1=O (stereo not given)
LC retention time, min: 22.3
--
COMPOUND: C[NH+]1CCC23c4c5ccc(O)c4OC2C(O)C=CC3C1C5 (stereo not given)
LC retention time, min: 7.4
--
COMPOUND: Cc1nnc(-c2ccccc2)c(=O)n1N
LC retention time, min: 14.3
--
COMPOUND: CCOC(=O)C1(c2ccccc2)CC[NH+](C)CC1
LC retention time, min: 12.8
--
COMPOUND: CC[NH+](CC)CC(=O)Nc1c(C)cccc1C
LC retention time, min: 11.2

====

Listing of entries alongside the reported absolute recovery.
ASSAY: absolute recovery over mixed-bed multilayer solid-phase extraction; higher = better recovery
CONDITION: wastewater effluent; enrichment method: SPE

COMPOUND: Nc1[nH]c(=O)ncc1F
absolute recovery [%]: 5.4
//
COMPOUND: COc1cc(OC)n2nc(S(=O)(=O)Nc3c(Cl)ccc(C)c3Cl)nc2n1
absolute recovery [%]: 99.7
//
COMPOUND: CC(O)C(=O)Nc1c(I)c(C(=O)NC(CO)CO)c(I)c(C(=O)NC(CO)CO)c1I (stereo not given)
absolute recovery [%]: 70
//
COMPOUND: COC(=O)c1ccc(CNS(C)(=O)=O)cc1S(=O)(=O)[N-]C(=O)Nc1nc(OC)cc(OC)n1
absolute recovery [%]: 96.2
//
COMPOUND: Nc1nc(=O)c2ncn(CCC(CO)CO)c2[nH]1
absolute recovery [%]: 83

====

ASSAY: absolute recovery over mixed-bed multilayer solid-phase extraction; higher = better recovery
CONDITION: nanopure water; enrichment method: SPE
Please use yes (1) whenever absolute recovery is not below 90%, and no (0) whenever it is.

COMPOUND: Cn1sc(Cl)cc1=O
ASSIGNED LABEL: no (0)

COMPOUND: Nc1nc(N)[nH+]c(N)n1
ASSIGNED LABEL: no (0)

COMPOUND: CC(Oc1ccc(Oc2ccc(C(F)(F)F)cn2)cc1)C(=O)[O-] (stereo not drawn)
ASSIGNED LABEL: yes (1)

COMPOUND: CCCCCOC(=O)[N-]c1nc(=O)n(C2OC(C)C(O)C2O)cc1F (stereo not drawn)
ASSIGNED LABEL: yes (1)

COMPOUND: Cc1ccc(NC=O)c(C)c1
ASSIGNED LABEL: yes (1)

COMPOUND: CCOc1ccc(NC(=O)OC(C)C)cc1OCC
ASSIGNED LABEL: yes (1)

COMPOUND: CC([NH3+])C(O)c1ccccc1 (stereo not drawn)
ASSIGNED LABEL: no (0)

COMPOUND: COC(=O)c1cccc(C)c1S(=O)(=O)[N-]C(=O)Nc1nc(OCC(F)(F)F)nc(N(C)C)n1
ASSIGNED LABEL: yes (1)

COMPOUND: CS(=O)(=O)c1ccc(C(=O)[O-])c(Cl)c1
ASSIGNED LABEL: yes (1)

COMPOUND: CCOc1ccc2ccccc2c1C(=O)NC1C(=O)N2C1SC(C)(C)C2C(=O)[O-] (stereo not drawn)
ASSIGNED LABEL: no (0)

COMPOUND: CC(C)OC(=O)NC(C(=O)NC(C)c1nc2ccc(F)cc2s1)C(C)C (stereo not drawn)
ASSIGNED LABEL: yes (1)

COMPOUND: CC(=O)N(CC(O)CO)c1c(I)c(C(=O)NCC(O)CO)c(I)c(C(=O)NCC(O)CO)c1I (stereo not drawn) [Iohexol]
ASSIGNED LABEL: no (0)

COMPOUND: COc1ccc(CCC(=O)c2c(O)cc(OC3OC(CO)C(O)C(O)C3OC3OC(C)C(O)C(O)C3O)cc2O)cc1O (stereo not drawn) [Neohesperidin-dihydrochalcon]
ASSIGNED LABEL: no (0)

COMPOUND: Nc1nc(=O)n(C2CSC(CO)O2)cc1F (stereo not drawn)
ASSIGNED LABEL: no (0)

COMPOUND: C=CC1=C(C(=O)[O-])N2C(=O)C([NH3+])C2SC1 (stereo not drawn)
ASSIGNED LABEL: no (0)

====

Overview of reported absolute recovery across a group of molecules:
ASSAY: absolute recovery over vacuum-assisted evaporative concentration; higher = better recovery
CONDITION: wastewater effluent; enrichment method: VEC

MOLECULE: CON=C(C(=O)[O-])c1ccccc1COc1ccccc1C [Kresoxim-methyl-acid]
absolute recovery (%): 97.4
//
MOLECULE: CCC(=[NH+]OCC=CCl)C1=C([O-])CC(C2CCOCC2)CC1=O (stereo not given) [Tepraloxydim]
absolute recovery (%): 114
//
MOLECULE: Cn1ncc(N)c(Cl)c1=O [Chloridazon-methyl-desphenyl]
absolute recovery (%): 99.2
//
MOLECULE: NS(=O)(=O)c1cc(C2(O)NC(=O)c3ccccc32)ccc1Cl (stereo not given) [Chlorthalidon]
absolute recovery (%): 98.1
//
MOLECULE: Clc1ccc(C(c2ccccc2)N2CC[NH2+]CC2)cc1 (stereo not given) [1-[(4-Chlorophenyl)phenylmethyl]piperazine]
absolute recovery (%): 86.4
//
MOLECULE: COC(=O)c1ccccc1S(=O)(=O)[N-]C(=O)N(C)c1nc(C)nc(OC)n1 [Tribenuron-methyl]
absolute recovery (%): 124
//
MOLECULE: CC(C)(C)C(O)(CCc1ccc(Cl)cc1)Cn1cncn1 (stereo not given) [Tebuconazol]
absolute recovery (%): 106
//
MOLECULE: CNC(=O)Oc1cccc2c1OC(C)(C)C2 [Carbofuran]
absolute recovery (%): 83.9
//
MOLECULE: Nc1ccc(S(=O)(=O)[N-]c2ccccn2)cc1 [Sulfapyridin]
absolute recovery (%): 103
//
MOLECULE: CCCC(Cn1cncn1)c1ccc(Cl)cc1Cl (stereo not given) [Penconazol]
absolute recovery (%): 105
//
MOLECULE: CCS(=O)(=O)c1nc2ccccn2c1S(=O)(=O)[N-]C(=O)Nc1nc(OC)cc(OC)n1 [Sulfosulfuron]
absolute recovery (%): 108
//
MOLECULE: c1ccc2[nH]nnc2c1 [Benzotriazol]
absolute recovery (%): 104
//
MOLECULE: CCNc1nc(O)nc(NC(C)C)n1 [Atrazin-2-Hydroxy]
absolute recovery (%): 102
//
MOLECULE: COc1ccc(C(C[NH+](C)C)C2(O)CCCCC2)cc1 (stereo not given) [Venlafaxin]
absolute recovery (%): 106
//
MOLECULE: CC1COc2c(N3CCN(C)CC3)c(F)cc3c(=O)c(C(=O)[O-])cn1c23 (stereo not given) [Levofloxacin]
absolute recovery (%): 103
//
MOLECULE: CNC(=O)Oc1cc(C)c(SC)c(C)c1 [Methiocarb]
absolute recovery (%): 67.9
//
MOLECULE: COc1ccc2c3c1OC1C(O)CCC4C(C2)[NH+](C)CCC341 (stereo not given) [Dihydrocodeine]
absolute recovery (%): 108
//
MOLECULE: c1ccc(CN2CC[NH2+]CC2)cc1 [1-Benzylpiperazin]
absolute recovery (%): 109
//
MOLECULE: C[N+]1([O-])CCN2c3ccccc3Cc3ccccc3C2C1 (stereo not given) [Mianserin-N-Oxide]
absolute recovery (%): 100
//
MOLECULE: C[NH2+]CCCC(C#N)(c1ccc(OC)c(OC)c1)C(C)C (stereo not given) [D617]
absolute recovery (%): 101

Measured values drawn from the supplement of paper PMC6470124 for this set.
